# assay-protocol: refractive index (Na D-line) (dimensionless)
# settings: 298.15 K; 101.33 kPa; Liquid; Standard Abbe refractometry
Would you mind telling me the reported refractive index of each entry?
No unit in the answer, please; the number alone is enough.

Input OCCCc1ccccc1 [3-phenyl-1-propanol] . Output refractive index: 1.5259

Input COc1ccccc1 [anisole] . Output refractive index: 1.5153

Input CCOc1ccccc1 [ethoxybenzene] . Output refractive index: 1.5058

Input OCCc1ccccc1 [2-phenylethanol] . Output refractive index: 1.5321

Input OCc1ccccc1 [benzenemethanol] . Output refractive index: 1.5377

----------
Would you mind telling me the reported mass density of each entry?
# settings: 308.15 K; 101.33 kPa; Liquid
API: value field is a number in kg/m3; no unit string.

Input `OCCc1ccccc1` . Output mass density: 1008.75

Input `OCc1ccccc1` . Output mass density: 1033.64

Input `COc1ccccc1` . Output mass density: 979.71

Input `CCOc1ccccc1` . Output mass density: 950.86

Input `OCCCc1ccccc1` . Output mass density: 991.01

----------
# assay-protocol: refractive index (Na D-line) (dimensionless)
# settings: 308.15 K; 101.33 kPa; Liquid; Standard Abbe refractometry
parameter-measured: refractive index
No unit in the answer, please; the number alone is enough.

Input OCCCc1ccccc1 [3-phenyl-1-propanol] . Output refractive index: 1.5214

Input OCCc1ccccc1 [2-phenylethanol] . Output refractive index: 1.5269

Input COc1ccccc1 [anisole] . Output refractive index: 1.5095

Input CCOc1ccccc1 [ethoxybenzene] . Output refractive index: 1.5002

Input OCc1ccccc1 [benzenemethanol] . Output refractive index: 1.535
